Here's what we have: IC50 numbers for Cholinesterase (Equus caballus).

> print(dat)
                         compound.structure  test.result
1  O=C(NCCN1CCCC1)c1ccc(/C=C2\CCCn3c2nc2cc(Cl)ccc2c3=O)cc1      6.75 µM
2  CN(C)CCNC(=O)c1ccc(/C=C2\CCCn3c2nc2cc(Cl)ccc2c3=O)cc1      > 40 µM
3  CN(C)CCCNC(=O)c1ccc(/C=C2\CCCn3c2nc2cc(Cl)ccc2c3=O)cc1      6.64 µM

Turning now to a further compound:
Asked: Query the reported IC50 for Cholinesterase (Equus caballus); item: CCN(CC)CCC(=O)Nc1ccc(/C=C2\CCCn3c2nc2cc(Cl)ccc2c3=O)cc1
Given back: 2.34 µM
